I'd appreciate it if you could supply melting point values for the items below.

Please review the following examples before continuing.
compound: CC(C)(C)c1cccc2c1OCC2=O
melting point: 69 to 71 °C

compound: CCN(C(C)=O)c1nc(C=O)cs1
melting point: 121 to 123 °C

compound: CC(C)NC(=O)c1ccc(N)cc1
melting point: 149 to 151 °C

compound: CN(C)c1cccc(-c2nnc(N)o2)c1
melting point: 175 to 177 °C

compound: Nc1cc(Cl)c(Cl)nc1N
melting point: 149 to 151 °C

compound: COc1ccc(N)c(C(=O)NC2CC2)c1
melting point: 137 to 139 °C

Could you report melting point for every entry in the following list?
1. CC(C)c1noc2ncc(C(=O)O)cc12
2. COc1ccccc1OCCBr
3. Cc1sc(NC(=O)CCl)nc1-c1ccc(Cl)cc1
4. CC(Cl)C(=O)NC(C)(C)C (stereo not drawn)
5. CC(C)(C)OC(=O)N[C@@H]1CCCC[C@H]1N (relative stereo)
6. NC(=O)C1CCCN(C(=O)c2cc(Cl)ccc2N)C1 (stereo not drawn)
7. O=C(O)C1CCCCN1C(=O)c1ccc(Br)c(F)c1 (stereo not drawn)
8. O=C(O)CNC(=O)c1ccccc1OC(F)F

// result
1: 159 to 161 °C; 2: 39 to 41 °C; 3: 176 to 178 °C; 4: 84 to 86 °C; 5: 76 to 78 °C; 6: 229 to 231 °C; 7: 134 to 136 °C; 8: 66 to 68 °C

---

I'd appreciate it if you could supply melting point values for the items below.

compound: O=C(C(=O)N1CCOCC1)N1CCNCC1
melting point: 127 to 129 °C

Could you report melting point for every entry in the following list?
1. Cc1[nH]nc(C(=O)O)c1S(=O)(=O)Cl
2. CCOc1ccc2nc(NS(=O)(=O)c3cc(C(=O)O)c(Cl)cc3Cl)sc2c1

// result
150 to 152 °C
163 to 165 °C

Could you report melting point for every entry in the following list?
1. O=C(O)C(=Cc1cccs1)n1nnnc1-c1ccccc1
2. CN1CCN(c2nccc(Cl)n2)CC1
3. O=C(O)c1csc(CCc2ccccc2)n1
4. CS(=O)(=O)c1cccnc1
5. NC(=O)c1nnc(O)nc1O
6. Nc1ccc2c(c1)OC1(CCCCC1)O2
7. O=C(O)CCN1CCCC1=O

// result
1: 204 to 206 °C; 2: 94 to 96 °C; 3: 132 to 134 °C; 4: 54 to 56 °C; 5: 294 to 296 °C; 6: 65 to 67 °C; 7: 109 to 111 °C

Could you report melting point for every entry in the following list?
1. CCC(CC)n1nc(C)cc1C(=O)O
2. O=C1CCCN1C1CCNCC1

// result
1: 149 to 151 °C; 2: 84 to 86 °C

---

I'd appreciate it if you could supply melting point values for the items below.

Please review the following examples before continuing.
structure_as_smiles: O=S(=O)(Cl)c1cn[nH]c1
reported_measurement: 99 to 101 °C
--
structure_as_smiles: Cc1nn(Cc2ccc(Cl)cc2)c(C)c1C=O
reported_measurement: 71 to 73 °C
--
structure_as_smiles: CC(C)(C(N)=O)c1ccc(N)cc1
reported_measurement: 122 to 124 °C

// moving on: another record for melting point
Field melting point (entry `O=C(O)CNS(=O)(=O)c1ccc(Cl)s1` ) reads 142 to 144 °C

---

metric_name: melting point

Please review the following examples before continuing.
molecule: CC(C)c1cc(N)on1
metric_name: melting point
reported_measurement: 33 to 35 °C

molecule: CCn1c(N)nc2cc(C#N)ccc21
metric_name: melting point
reported_measurement: 189 to 191 °C

Could you report melting point for every entry in the following list?
1. CC(Cl)C(=O)NC1CCCC1 (stereo not given)
2. O=C(O)CNC(=O)c1cc2c(s1)CCCC2
3. N#CC(Cl)(Cl)c1nc2ccccc2s1

// result
["111 to 113 °C", "177 to 179 °C", "66 to 68 °C"]

---

I'd appreciate it if you could supply melting point values for the items below.

compound: CC(C)n1c(S)nnc1N(C)C
melting point: 127 to 129 °C

Could you report melting point for every entry in the following list?
1. CN(C(=O)c1ccc(N)cc1Cl)C1CCCCC1
2. COc1ccc(N)cc1S(=O)(=O)N1CCOCC1
3. Cc1cc(OCCO)ccc1N

// result
1. 172 to 174 °C
2. 131 to 133 °C
3. 62 to 64 °C

---

I'd appreciate it if you could supply melting point values for the items below.

Please review the following examples before continuing.
compound: CCOC(=O)c1cc(F)c(F)cc1N
melting point: 82 to 84 °C

compound: CC1CCN(CCCC(N)=NO)CC1
melting point: 98 to 100 °C

Could you report melting point for every entry in the following list?
1. O=C(O)c1cccnc1-n1cnc2ccccc21
2. Cc1nccn1-c1ccc(N)cn1
3. CCC1(c2ccc(C)cc2)CC(=O)NC1=O (centres undefined)
4. CC(SCC(=O)Nc1ccc(Br)cc1)C(=O)O (centres undefined)

// result
1. 249 to 251 °C
2. 160 to 162 °C
3. 76 to 78 °C
4. 139 to 141 °C

Could you report melting point for every entry in the following list?
1. CC(C)(C)OC(=O)N1CCC(C(=O)O)C1 (centres undefined)
2. Cc1cc(Cl)c(CCl)c(Cl)n1
3. Cc1cc(CS(=O)(=O)Cl)no1
4. Cc1nn(C(C)(C)C)c(C)c1C(=O)O
5. OCc1ccncc1Cl
6. O=C(CCl)NCCOc1ccc2c(c1)OCO2
7. O=C(O)Cc1sc(-c2ccccc2)nc1-c1cccs1
8. O=[N+]([O-])c1c(F)cccc1S(=O)(=O)Cl

// result
["134 to 136 °C", "45 to 47 °C", "43 to 45 °C", "158 to 160 °C", "118 to 120 °C", "75 to 77 °C", "117 to 119 °C", "52 to 54 °C"]

---

metric_name: melting point

compound: O=C(O)c1ccc(=O)n(Cc2ccccc2Cl)c1
melting point: 182 to 184 °C
//
compound: Cc1ccc(C2OCCCC2C(=O)O)cc1 (stereo not drawn)
melting point: 126 to 128 °C
//
compound: NS(=O)(=O)c1ccc(S(=O)(=O)N2CCC(C(=O)O)CC2)cc1
melting point: 190 to 192 °C

Could you report melting point for every entry in the following list?
1. O=C1Nc2cc(F)c(Br)cc2C1=O
2. Cc1nc2ccccc2n1Cc1cc(N)ccc1Cl
3. C=CCOc1ccccc1C(=O)O
4. COc1cc2ncn(CCC(=O)O)c(=O)c2cc1OC
5. O=C(O)c1cc(OCC(F)(F)F)cc(OCC(F)(F)F)c1
6. Nn1cnc2sccc2c1=O
7. O=C(O)CCCN1C(=O)c2cccc3cccc(c23)C1=O
8. COc1ccc(Br)cc1C(=O)C(=O)O

// result
["266 to 268 °C", "191 to 193 °C", "58 to 60 °C", "95 to 97 °C", "141 to 143 °C", "214 to 216 °C", "86 to 88 °C", "137 to 139 °C"]

Could you report melting point for every entry in the following list?
1. O=C(O)c1cc(Br)sc1Br
2. COC(=O)Cn1cnc2cc(F)ccc2c1=O

// result
1. 179 to 181 °C
2. 144 to 146 °C

---

metric_name: melting point

compound: COc1ccccc1Oc1ccc(C(N)=S)cc1
reported_measurement: 193 to 195 °C
//
compound: O=C(CBr)c1ccc(N2CCCC2=O)cc1
reported_measurement: 130 to 132 °C
//
compound: COC(=O)c1n[nH]c2ccc(N)cc12
reported_measurement: 181 to 183 °C
//
compound: O=C(O)c1cnn(-c2cccc(C(F)(F)F)c2)c1C1CC1
reported_measurement: 172 to 174 °C
//
compound: Nc1ccc(-c2cccc(C(F)(F)F)c2)cn1
reported_measurement: 101 to 103 °C

Could you report melting point for every entry in the following list?
1. Cc1ccc(-c2nnc(Cl)c3ccccc23)cc1
2. NC(=O)N1CCC(O)CC1
3. O=c1ccccn1CCBr

// result
["145 to 147 °C", "147 to 149 °C", "126 to 128 °C"]

Could you report melting point for every entry in the following list?
1. CC(=O)CC(=O)Nc1ccc(NC(=O)C2CC2)cc1
2. Cc1cc(-n2c(C)cc(C=O)c2C)no1

// result
1: 183 to 185 °C; 2: 75 to 77 °C

---

I'd appreciate it if you could supply melting point values for the items below.

Please review the following examples before continuing.
molecule: CC(=O)NC(C(=O)O)C1CCCC1 (centres undefined)
melting point: 172 to 174 °C

molecule: NC1CCC(c2nc(-c3ccccc3)n[nH]2)CC1 (centres undefined)
melting point: 163 to 165 °C

molecule: CC(=O)Nc1sc(C)c(C)c1C(=O)O
melting point: 217 to 219 °C

molecule: Cc1ccc(NC(=O)NN)c(Cl)c1
melting point: 132 to 134 °C

molecule: COc1cn(-c2ccccc2)nc1C(=O)O
melting point: 144 to 148 °C

Could you report melting point for every entry in the following list?
1. Cc1nccc(CN)n1
2. COc1ccccc1-c1nnc(N)o1
3. COc1cc(S(=O)(=O)Cl)cc(C(=O)O)c1OC
4. O=c1c2ccccc2nc2n1CCO2
5. Nc1nnc(-c2ccccn2)s1
6. NNC(=O)c1c[nH]c2ccccc12

// result
8 to 10 °C
175 to 177 °C
159 to 161 °C
160 to 163 °C
260 to 262 °C
229 to 231 °C

Could you report melting point for every entry in the following list?
1. O=C(O)C=Cc1ccccc1OCC1CCCCC1
2. CC(C)(C)OC(=O)Nc1ccc(Cc2nc(C(=O)O)cs2)cc1

// result
1: 99 to 101 °C; 2: 164 to 166 °C

Could you report melting point for every entry in the following list?
1. NNc1cncc(Cl)n1
2. COC(=O)c1ccc(S(=O)(=O)Cl)c(Br)c1
3. O=C(O)CSc1nnc(C2CC2)n1Cc1ccccc1
4. N#Cc1ccsc1NC(=O)CCl
5. CC1CCN(S(=O)(=O)c2ccc(C(=O)O)s2)CC1
6. NS(=O)(=O)c1ccc(S(=O)(=O)Cl)cc1

// result
137 to 139 °C
82 to 84 °C
194 to 196 °C
160 to 170 °C
207 to 209 °C
144 to 146 °C
